test target: Cannabinoid receptor 2 (Homo sapiens)
protocol notes: Positive allosteric modulation of human CB2R expressed in CHO cell membranes assessed as increase in [3H]CP55940 binding after 60 mins by liquid scintillation spectrometric method
Active and inactive are the calls of the source. No cut-off for these calls is given here.
Returns: one label drawn from TRUE (active), FALSE (inactive)

// known answers, use as guide
{"columns": ["compound structure string", "group label"],
 "data": [
  ["COc1ccc(-c2cc(NC(=O)C3CCCCCC3)c(=O)n(Cc3ccc(F)cc3)c2C)cc1", "FALSE"],
  ["Cc1ccc(NC(=O)C2CCCCCC2)c(=O)n1Cc1ccc(F)cc1", "FALSE"],
  ["Cc1c(-c2ccccc2)cc(NC(=O)C2CCCCCC2)c(=O)n1Cc1ccc(F)cc1", "FALSE"]
]}

Hi, sorry to bother you, what did the test record for Cc1c(Br)cn(Cc2ccc(F)cc2)c(=O)c1NC(=O)C1CCCCCC1 ?
TRUE

Hi, sorry to bother you, what did the test record for Cc1ccn(Cc2ccc(F)cc2)c(=O)c1NC(=O)C1CCCCCC1 ?
FALSE

Hi, sorry to bother you, what did the test record for Cc1c(Br)cc(NC(=O)C2CCCCCC2)c(=O)n1Cc1ccc(F)cc1 ?
FALSE

Hi, sorry to bother you, what did the test record for Cc1c(Cl)cn(Cc2ccc(F)cc2)c(=O)c1NC(=O)C1CCCCCC1 ?
FALSE

Hi, sorry to bother you, what did the test record for O=C(Nc1c(O)c(Br)cn(Cc2ccc(F)cc2)c1=O)C1CCCCCC1 ?
TRUE
